Target: GCN2 (Homo sapiens, UniProt Q9P2K8)
Sequence (Q9P2K8 whole entry): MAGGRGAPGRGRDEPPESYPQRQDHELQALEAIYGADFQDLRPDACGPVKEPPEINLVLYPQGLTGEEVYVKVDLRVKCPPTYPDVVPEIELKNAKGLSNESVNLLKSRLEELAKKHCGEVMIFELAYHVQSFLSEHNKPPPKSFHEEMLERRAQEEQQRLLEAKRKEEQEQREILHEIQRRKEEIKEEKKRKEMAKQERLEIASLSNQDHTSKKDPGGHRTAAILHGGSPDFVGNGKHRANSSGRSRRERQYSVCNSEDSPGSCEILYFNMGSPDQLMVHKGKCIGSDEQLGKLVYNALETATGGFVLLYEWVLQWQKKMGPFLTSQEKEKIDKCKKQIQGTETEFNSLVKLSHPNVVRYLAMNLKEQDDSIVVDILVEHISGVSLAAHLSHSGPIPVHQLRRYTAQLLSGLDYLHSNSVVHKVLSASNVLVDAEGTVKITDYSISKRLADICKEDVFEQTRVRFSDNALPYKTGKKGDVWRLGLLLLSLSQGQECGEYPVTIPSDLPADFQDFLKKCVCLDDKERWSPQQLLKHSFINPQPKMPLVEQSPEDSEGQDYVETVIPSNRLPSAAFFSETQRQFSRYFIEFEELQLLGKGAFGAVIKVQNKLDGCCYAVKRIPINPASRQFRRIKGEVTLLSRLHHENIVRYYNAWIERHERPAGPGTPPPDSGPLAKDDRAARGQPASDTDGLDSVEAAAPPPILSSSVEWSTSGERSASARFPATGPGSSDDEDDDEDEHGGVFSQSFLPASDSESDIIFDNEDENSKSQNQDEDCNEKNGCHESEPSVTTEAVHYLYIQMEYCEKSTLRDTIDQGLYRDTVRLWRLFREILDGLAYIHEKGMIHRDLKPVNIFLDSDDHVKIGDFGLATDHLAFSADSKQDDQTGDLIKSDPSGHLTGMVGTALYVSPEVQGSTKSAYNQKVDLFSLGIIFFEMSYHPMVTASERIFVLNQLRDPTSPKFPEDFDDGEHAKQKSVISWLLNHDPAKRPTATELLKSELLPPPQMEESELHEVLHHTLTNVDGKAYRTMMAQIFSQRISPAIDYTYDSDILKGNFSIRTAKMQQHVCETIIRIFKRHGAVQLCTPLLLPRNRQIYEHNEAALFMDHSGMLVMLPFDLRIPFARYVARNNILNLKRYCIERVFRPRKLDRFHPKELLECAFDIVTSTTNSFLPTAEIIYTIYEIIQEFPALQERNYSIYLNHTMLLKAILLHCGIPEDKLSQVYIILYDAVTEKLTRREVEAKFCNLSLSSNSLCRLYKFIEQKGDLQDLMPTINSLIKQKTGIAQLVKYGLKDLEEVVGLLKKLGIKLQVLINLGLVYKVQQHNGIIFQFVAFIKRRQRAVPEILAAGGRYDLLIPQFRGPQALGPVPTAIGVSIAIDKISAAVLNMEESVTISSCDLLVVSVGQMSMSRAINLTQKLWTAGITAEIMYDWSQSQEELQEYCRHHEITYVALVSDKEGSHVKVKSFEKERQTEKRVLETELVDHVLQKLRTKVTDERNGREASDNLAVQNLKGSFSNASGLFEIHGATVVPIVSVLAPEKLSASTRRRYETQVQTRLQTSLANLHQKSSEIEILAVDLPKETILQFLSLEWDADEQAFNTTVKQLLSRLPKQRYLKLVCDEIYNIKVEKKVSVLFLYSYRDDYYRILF
Test: TR-FRET biochemical assay for inhibition of GCN2 (Example 106, for Example 1-4BB)
Settings: Table 9
pIC50: −log10 of the molar value.
Can you tell me pIC50 for the items I'm about to list?

Illustrative cases are given below, each with its answer.
- smiles code: "COc1ncc(Cl)cc1S(=O)(=O)Nc1cccc(-c2cc3[nH]nc(C(=O)NCCCN(C)C)c3cn2)c1F"
  pIC50: "> 6.30"
- smiles code: "Cc1ncc(C#N)cc1S(=O)(=O)Nc1ccc(F)c(-c2ccc3c(C(N)=O)n[nH]c3c2F)c1F"
  pIC50: "> 6.30"
- smiles code: "COc1ncc(Cl)cc1S(=O)(=O)Nc1ccc(F)c(-c2ccc3c(C(=O)Nc4cnn(C(F)F)c4)n[nH]c3c2F)c1F"
  pIC50: "5.60 to 6.30"

Here is another compound to look at.
// pIC50 lookup, key: O=S(=O)(Nc1ccc(F)c(-c2ccc3c(-c4ncc[nH]4)n[nH]c3c2F)c1F)c1cccn2ccnc12
> 6.30

* * *

Target: GCN2 (Homo sapiens, UniProt Q9P2K8)
Assay: TR-FRET biochemical assay for inhibition of GCN2 (Example 106, for Example 1-4BB)
Conditions: Table 9
measurement type: IC50

- compound: "COc1ncc(F)cc1S(=O)(=O)Nc1ccc(F)c(-c2ccc3c(-c4nc(CO)c[nH]4)n[nH]c3c2F)c1F [Example 3X]"
  IC50: "< 500 nM"

Quick batch: IC50 for everything below.
1. COc1ncc(Cl)cc1S(=O)(=O)Nc1ccc(F)c(-c2ccc3c(C(=O)NC4COC4)n[nH]c3c2F)c1F [Example 3B]
2. COc1ncc(CO)cc1S(=O)(=O)Nc1ccc(F)c(-c2ccc3c(C(=O)NCCCO)n[nH]c3c2F)c1F [Example 3CN]
3. COc1ncc(F)cc1S(=O)(=O)Nc1ccc(F)c(-c2ccc3c(-c4nc(C#N)c[nH]4)n[nH]c3c2F)c1F [Example 19]

2500 to 10000 nM
2500 to 10000 nM
< 500 nM

* * *

Target: GCN2 (Homo sapiens)
Assay: TR-FRET biochemical assay for inhibition of GCN2 (Example 106, for Example 1-4BB)
Settings: Table 9
pIC50: −log10 of the molar value.
measurement type: pIC50

Please review the following examples before continuing.
- compound: "COc1ncc(F)cc1S(=O)(=O)Nc1ccc(F)c(-c2ccc3c(C(=O)Nc4ccc(=O)n(C)c4)n[nH]c3c2F)c1F"
  experimental system: "GCN2 (Homo sapiens)"
  measurement type: "pIC50"
  experimental value: "> 6.30"
- compound: "COc1ncc(Cl)cc1S(=O)(=O)Nc1ccc(F)c(-c2ccc3c(C(=O)NC[C@H]4CCCN4C)n[nH]c3c2F)c1F"
  experimental system: "GCN2 (Homo sapiens)"
  measurement type: "pIC50"
  experimental value: "> 6.30"
- compound: "COc1nc(C)c(C#N)cc1S(=O)(=O)Nc1ccc(F)c(-c2ccc3c(-c4ncc[nH]4)n[nH]c3c2F)c1F"
  experimental system: "GCN2 (Homo sapiens)"
  measurement type: "pIC50"
  experimental value: "> 6.30"
- compound: "Cc1ccc(S(=O)(=O)Nc2ccc(F)c(-c3ccc4c(C(N)=O)n[nH]c4c3F)c2F)c(C)n1"
  experimental system: "GCN2 (Homo sapiens)"
  measurement type: "pIC50"
  experimental value: "5.60 to 6.30"

The following compounds each have a reported value; give each one's pIC50.
1. Cc1ncc(C#N)cc1S(=O)(=O)Nc1ccc(F)c(-c2ccc3c(-c4ncc[nH]4)n[nH]c3c2F)c1F
2. Cc1nc(C)c(S(=O)(=O)Nc2cc(F)cc(-c3ccc4c(-c5ncc[nH]5)n[nH]c4c3F)c2F)s1
3. CC1CCc2c1cc(F)cc2S(=O)(=O)Nc1ccc(F)c(-c2ccc3c(-c4ncc[nH]4)n[nH]c3c2F)c1F (stereo not shown)

1. > 6.30
2. > 6.30
3. > 6.30

* * *

For each of the molecules below, state its pIC50.
Biological target: UniProtKB Q9P2K8
Experiment: TR-FRET assay for inhibition of GCN2 (Example 107, for Examples 40-72)
pIC50: −log10 of the molar value.

# example entries with known answers
- molecule: "COc1ncc(Cl)cc1S(=O)(=O)Nc1ccc(F)c(-c2ccc3c(C(=O)NC(C)CO)n[nH]c3c2F)c1F (stereo not shown)"
  experimental system: "UniProtKB Q9P2K8"
  measurement type: "pIC50"
  experimental value: "> 6.30"
- molecule: "CNC(=O)c1n[nH]c2c(F)c(-c3c(F)ccc(NS(=O)(=O)c4cccc5c4ncn5C)c3F)ccc12"
  experimental system: "UniProtKB Q9P2K8"
  measurement type: "pIC50"
  experimental value: "5.60 to 6.30"
- molecule: "COc1ncc(Cl)cc1S(=O)(=O)Nc1ccc(F)c(-c2ccc3c(C(=O)NC4CCN(C(C)=O)C4)n[nH]c3c2F)c1F (stereo not shown)"
  experimental system: "UniProtKB Q9P2K8"
  measurement type: "pIC50"
  experimental value: "> 6.30"
- molecule: "CNC(=O)c1n[nH]c2c(F)c(-c3c(F)ccc(NS(=O)(=O)c4cccc5ncn(C)c45)c3F)ccc12"
  experimental system: "UniProtKB Q9P2K8"
  measurement type: "pIC50"
  experimental value: "> 6.30"
- molecule: "CCC(C)NC(=O)c1n[nH]c2c(F)c(-c3c(F)ccc(NS(=O)(=O)c4cc(Cl)cnc4OC)c3F)ccc12 (stereo not shown)"
  experimental system: "UniProtKB Q9P2K8"
  measurement type: "pIC50"
  experimental value: "> 6.30"

Could you report pIC50 for every entry in the following list?
1. CNC(=O)c1n[nH]c2c(F)c(-c3c(F)ccc(NS(=O)(=O)c4cc(Cl)cnc4OC)c3F)cc(C)c12
2. CNC(=O)c1n[nH]c2c(F)c(-c3c(F)ccc(NS(=O)(=O)c4cc(Cl)cnc4OC)c3F)ncc12

> 6.30
> 6.30

* * *

Target: GCN2 (Homo sapiens)
Assay: TR-FRET biochemical assay for inhibition of GCN2 (Example 106, for Example 1-4BB)
Conditions: Table 8
Give IC50 for every item shown.

Take a look at these entries with their results.
- smiles code: "COc1ncc(Cl)cc1S(=O)(=O)Nc1ccc(F)c(-c2ccc3c(-c4ccn[nH]4)n[nH]c3c2F)c1F"
  experimental system: "GCN2 (Homo sapiens)"
  IC50: "< 500 nM"
- smiles code: "Cc1c(Cl)cccc1S(=O)(=O)Nc1ccc(F)c(-c2ccc3c(-c4ncc[nH]4)n[nH]c3c2F)c1F"
  experimental system: "GCN2 (Homo sapiens)"
  IC50: "< 500 nM"
- smiles code: "O=S(=O)(Nc1ccc(F)c(-c2ccc3c(-c4ncc[nH]4)n[nH]c3c2F)c1F)c1ccccc1"
  experimental system: "GCN2 (Homo sapiens)"
  IC50: "500 to 2500 nM"

Next:
I am curious: what IC50 value has been reported for Cc1ncc(F)cc1S(=O)(=O)Nc1ccc(F)c(-c2ccc3c(-c4ncc[nH]4)n[nH]c3c2F)c1F ?
< 500 nM

* * *

Biological target: GCN2 (Homo sapiens, UniProt Q9P2K8)
Assay: TR-FRET biochemical assay for inhibition of GCN2 (Example 106, for Example 1-4BB)
Conditions: Table 9
pIC50: −log10 of the molar value.
For each record, write down the corresponding pIC50.

- molecule: "COc1ncc(Cl)cc1S(=O)(=O)Nc1ccc(F)c(-c2ccc3c(C(=O)Nc4cn[nH]c4)n[nH]c3c2F)c1F [Example 3CQ]"
  experimental system: "GCN2 (Homo sapiens, UniProt Q9P2K8)"
  measurement type: "pIC50"
  experimental value: "> 6.30"
- molecule: "O=S(=O)(Nc1ccc(F)c(-c2ccc3c(-c4ncc[nH]4)n[nH]c3c2F)c1F)c1cc(F)cc(CO)c1Cl [Example 3CH]"
  experimental system: "GCN2 (Homo sapiens, UniProt Q9P2K8)"
  measurement type: "pIC50"
  experimental value: "> 6.30"
- molecule: "COc1ncccc1S(=O)(=O)Nc1nccc(-c2ccc3c(-c4ncc[nH]4)n[nH]c3c2F)c1C#N [Example 3J]"
  experimental system: "GCN2 (Homo sapiens, UniProt Q9P2K8)"
  measurement type: "pIC50"
  experimental value: "5.00 to 5.60"

I need pIC50 for every entry listed below, if you could help.
1. COc1ncc(F)cc1S(=O)(=O)Nc1cccc(-c2ccc3c(C(=O)NCCCO)n[nH]c3c2F)c1F [Example 26]
2. COc1ncc(F)cc1S(=O)(=O)Nc1ccc(F)c(-c2ccc3c(C(=O)NCCNC(C)=O)n[nH]c3c2F)c1F [Example 23]

1: > 6.30; 2: 5.60 to 6.30

Your task in this section: give pIC50 for each listed record.
1. NC(=O)c1n[nH]c2c(F)c(-c3c(F)ccc(NS(=O)(=O)c4cccn5ccnc45)c3F)ccc12 [Example 3AA]
2. Cc1ncc(F)cc1S(=O)(=O)Nc1cccc(-c2ccc3c(-c4ncc[nH]4)n[nH]c3c2C)c1F [Example 3Y]
3. COc1ncc(F)cc1S(=O)(=O)Nc1cc(F)cc(-c2ccc3c(-c4ncc[nH]4)n[nH]c3c2F)c1F [Example 3AS]
4. COc1ncc(F)cc1S(=O)(=O)Nc1ccc(F)c(-c2ccc3c(C(=O)NC[C@@H](O)CO)n[nH]c3c2F)c1F [Example 3AH]
5. COc1nscc1S(=O)(=O)Nc1cc(F)cc(-c2ccc3c(-c4ncc[nH]4)n[nH]c3c2F)c1F [Example 3BZ]

1: 5.00 to 5.60; 2: 5.60 to 6.30; 3: > 6.30; 4: > 6.30; 5: > 6.30

# return pIC50 for each item in the list
1. COc1ncc(F)cc1S(=O)(=O)Nc1ccc(F)c(-c2ccc3c(C(=O)NCC4CCN(C)CC4)n[nH]c3c2F)c1F [Example 3AK]
2. COc1ncc(F)cc1S(=O)(=O)Nc1cc(F)cc(-c2ccc3c(C(=O)N[C@@H]4CCN(C)C4)n[nH]c3c2F)c1F [Example 3BS]

1: > 6.30; 2: > 6.30

Dear reader, for each entry below, please note its pIC50.
1. COc1ncc(F)cc1S(=O)(=O)Nc1cccc(-c2ccc3c(-c4nc(CO)c[nH]4)n[nH]c3c2F)c1F [Example 13]
2. Cc1c(CO)cc(F)cc1S(=O)(=O)Nc1ccc(F)c(-c2ccc3c(C(=O)Nc4cn[nH]c4)n[nH]c3c2F)c1F [Example 4K]

1. > 6.30
2. > 6.30
